Measured values drawn from patent US7767716B2 for this set.

Test readout: melting point

{"Chemical string": "COC(=O)c1ccc(C(=O)NNC(=O)Cc2cccc(O)c2)cc1", "Recorded value": "201 to 202 °C"}
{"Chemical string": "O=C(Cc1cccc(O)c1)NNC(=O)c1cccc([N+](=O)[O-])c1", "Recorded value": "179 °C"}
{"Chemical string": "O=C(Cc1cccc(O)c1)NNC(=O)c1cccc(C(Cl)Cl)c1", "Recorded value": "154 to 155 °C"}
